biological target: CtBP1-E1A interaction (Homo sapiens, UniProt Q13363); test: CtBP1-E1A AlphaScreen assay; format: binding; settings: read-out: IC50, inhibition of the CtBP1-E1A interaction
MEASURED_PROPERTY: IC50 (µM)

molecule="O=C1C(SCCO)=C(SCCO)C(=O)c2ccccc21 [NSC95397]" readout_units=µM recorded_measurement=2.9

###

molecular target: CtBP1-E1A interaction (Homo sapiens, UniProt Q13363); experiment: Competitive ELISA; type: binding; conditions: read-out: IC50, disruption of the CtBP1-E1A interaction
MEASURED_PROPERTY: IC50 (µM)

compound="O=C1C(SCCO)=C(SCCO)C(=O)c2ccccc21 [NSC95397]" recorded_measurement=10

###

target: CtBP1-E1A peptide interaction (Homo sapiens); test: Fluorescence polarization assay with FITC-labeled E1A 14-mer peptide; assay type: binding; settings: read-out: IC50, CtBP1-E1A peptide interaction; 3 μM CtBP1, 5 nM FITC-E1A peptide
MEASURED_PROPERTY: IC50 (nM)

smiles_repr=O=C1C(SCCO)=C(SCCO)C(=O)c2ccccc21 tested_system="CtBP1-E1A peptide interaction (Homo sapiens)" recorded_measurement=610

###

biological target: Six1-Eya2 interaction (Homo sapiens, UniProt O00167+Q15475); test: Counterscreen AlphaScreen assay, Six1-Eya2; type: binding; conditions: 20 nM to 50 μM
Sequence (Q15475 whole entry): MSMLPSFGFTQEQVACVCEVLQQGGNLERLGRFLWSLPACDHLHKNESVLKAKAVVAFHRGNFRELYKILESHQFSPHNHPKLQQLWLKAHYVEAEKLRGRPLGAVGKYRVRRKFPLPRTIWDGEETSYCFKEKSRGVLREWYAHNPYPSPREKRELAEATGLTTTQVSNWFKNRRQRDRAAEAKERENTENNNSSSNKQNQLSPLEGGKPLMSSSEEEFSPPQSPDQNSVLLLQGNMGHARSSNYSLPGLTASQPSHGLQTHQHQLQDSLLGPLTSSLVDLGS
Sequence (O00167 whole entry): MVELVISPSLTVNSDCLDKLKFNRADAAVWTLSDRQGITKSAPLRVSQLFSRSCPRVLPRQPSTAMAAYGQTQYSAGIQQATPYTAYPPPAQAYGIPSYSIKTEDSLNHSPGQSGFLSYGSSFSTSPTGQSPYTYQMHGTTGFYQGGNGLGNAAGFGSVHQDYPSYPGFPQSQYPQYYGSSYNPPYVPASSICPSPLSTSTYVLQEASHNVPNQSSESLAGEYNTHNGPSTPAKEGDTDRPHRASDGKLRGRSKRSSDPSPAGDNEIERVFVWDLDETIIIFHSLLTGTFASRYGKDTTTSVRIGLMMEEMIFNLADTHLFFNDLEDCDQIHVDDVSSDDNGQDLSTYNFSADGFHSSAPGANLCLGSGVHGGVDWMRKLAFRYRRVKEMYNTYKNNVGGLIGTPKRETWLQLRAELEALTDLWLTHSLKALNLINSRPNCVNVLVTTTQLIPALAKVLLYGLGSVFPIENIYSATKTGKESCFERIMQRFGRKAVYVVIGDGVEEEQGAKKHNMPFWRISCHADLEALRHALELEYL
MEASURED_PROPERTY: inhibition of the Six1-Eya2 interaction

molecule=Nc1c(S(=O)(=O)O)cc(Nc2ccc(Nc3nc(Cl)nc(Nc4cccc(S(=O)(=O)O)c4)n3)c(S(=O)(=O)O)c2)c2c1C(=O)c1ccccc1C2=O recorded_measurement="efficiently inhibited"
molecule=O=C1c2ccccc2C(=O)c2c(NCCc3ccc(O)cc3)ccc(NCCc3ccc(O)cc3)c21 recorded_measurement="efficiently inhibited"
molecule=CCCn1c(=O)c2[nH]c(C3CCCC3)nc2n(CCCOC(=O)c2ccc(S(=O)(=O)F)cc2)c1=O recorded_measurement="did not inhibit"
molecule="O=C1O/C(=C/Br)CCC1c1cccc2ccccc12 (stereo not drawn)" recorded_measurement="efficiently inhibited"
molecule=CCCCc1ccc(C(=O)O)nc1 recorded_measurement="did not inhibit"
molecule="O.c1cnc2c(c1)ccc1cccnc12 [10-phenanthroline monohydrate]" recorded_measurement="efficiently inhibited"
